# STUDY TARGET: T1, human MSLN-FL-his protein (human, UniProt Q13421 296-580)
# T1 construct: made in HEK293E cells, purified on nickel column; also called hMSLN-FL-his; human MSLN full-length protein; not shown: His tag
# T1 sequence (Q13421 other isoform, or with tags, fused parts or gaps): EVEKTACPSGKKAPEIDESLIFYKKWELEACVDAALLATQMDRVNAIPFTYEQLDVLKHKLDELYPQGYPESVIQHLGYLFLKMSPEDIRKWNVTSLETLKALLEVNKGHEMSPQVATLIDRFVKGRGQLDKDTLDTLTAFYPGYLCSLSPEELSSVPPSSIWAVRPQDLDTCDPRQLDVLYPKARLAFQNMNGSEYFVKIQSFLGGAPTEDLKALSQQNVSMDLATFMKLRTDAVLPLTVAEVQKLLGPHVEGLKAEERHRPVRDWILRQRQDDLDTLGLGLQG
# ASSAY PROCEDURE: competitive ELISA; row F8-8.22; further: test concentration or dose not given here
Below, each entry is listed with its recorded competition rate.
Express the result in % but write the number alone.

Consider the reported competition rate for these binders:
| BINDER | RECORDED RESULT |
| --- | --- |
| S009-F8-28.23 (antibody, human IgG1, kappa, V domains shown, human-murine chimeric antibody, human IgG1/kappa constant regions) VH: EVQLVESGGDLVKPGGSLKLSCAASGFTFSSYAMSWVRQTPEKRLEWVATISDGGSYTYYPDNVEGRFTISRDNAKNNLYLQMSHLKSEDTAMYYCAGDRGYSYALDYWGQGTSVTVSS VL: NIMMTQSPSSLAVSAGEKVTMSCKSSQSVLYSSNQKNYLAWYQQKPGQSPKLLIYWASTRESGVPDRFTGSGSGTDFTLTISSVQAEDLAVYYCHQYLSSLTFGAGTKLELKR | 24.9 |
| S009-F8-22.23 (antibody, human IgG1, kappa, V domains shown, human-murine chimeric antibody, human IgG1/kappa constant regions) VH: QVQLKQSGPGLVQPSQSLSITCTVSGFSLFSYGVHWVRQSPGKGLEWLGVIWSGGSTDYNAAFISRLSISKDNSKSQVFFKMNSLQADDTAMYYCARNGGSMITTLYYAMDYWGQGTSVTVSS VL: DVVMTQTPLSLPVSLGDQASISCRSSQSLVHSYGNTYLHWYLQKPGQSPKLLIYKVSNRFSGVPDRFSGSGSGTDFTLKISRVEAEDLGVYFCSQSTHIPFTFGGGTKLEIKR | 94 |
| S009-F8-8.22 (antibody, human IgG1, kappa, V domains shown, human-murine chimeric antibody, human IgG1/kappa constant regions) VH: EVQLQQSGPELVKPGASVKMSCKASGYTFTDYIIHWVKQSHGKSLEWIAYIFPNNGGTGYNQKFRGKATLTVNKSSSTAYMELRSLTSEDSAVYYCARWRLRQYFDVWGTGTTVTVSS VL: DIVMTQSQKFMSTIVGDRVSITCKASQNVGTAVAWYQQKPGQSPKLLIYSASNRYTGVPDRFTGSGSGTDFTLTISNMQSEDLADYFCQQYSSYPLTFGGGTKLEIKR | 92.2 |

Note: attention shifts to another entry.
Data request: I have this binder here, S009-F8-24.14 (antibody, human IgG1, kappa, V domains shown, human-murine chimeric antibody, human IgG1/kappa constant regions) VH: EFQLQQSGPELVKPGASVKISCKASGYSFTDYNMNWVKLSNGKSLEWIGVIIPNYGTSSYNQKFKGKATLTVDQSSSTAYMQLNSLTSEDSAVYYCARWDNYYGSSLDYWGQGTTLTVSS VL: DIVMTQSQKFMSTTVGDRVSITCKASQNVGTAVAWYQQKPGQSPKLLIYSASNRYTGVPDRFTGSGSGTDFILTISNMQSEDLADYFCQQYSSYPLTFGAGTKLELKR , and I need its recorded competition rate.
Data returned: 74.5
